B1: DYRK1B (parent)
chain: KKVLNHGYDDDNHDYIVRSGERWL

Variants of: B1
Test: protein stability index of a GFP-peptide fusion (GPS, HEK-293T) (PSI 1-6); higher = more stable;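 note: lentivirally expressed fusions sorted by FACS into six bins by GFP to DsRed ratio, PSI derived from sequencing read proportions per bin multiplied by bin number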
Condition: c terminus: a fixed tail appended
Property: protein stability index; scope: individual variants
Reply: number alone, nothing else.

KKVLNHGYDDDNHDYIDRSGERWL [V17D] | 3.56

Request: Need protein stability index of KKVLNHGYDDDNHDYIVPSGERWL [R18P] , thanks.
Result: 3.24

Request: Data request, read-out protein stability index, for KKVLNHGYDDDNHDYICRSGERWL [V17C]
Result: 2.6

Request: Dear colleague, I am looking for the recorded protein stability index of the following variant: KKVCNHGYDDDNHDYIVRSGERWL [L4C]
Result: 3.33

Request: Given KKVLNHGYDDPNHDYIVRSGERWL [D11P] , state its recorded protein stability index.
Result: 2.58

Request: Endpoint output: protein stability index of KKVKNHGYDDDNHDYIVRSGERWL [L4K] . Value?
Result: 3.68
